Molecular target: ZBTB7A (Homo sapiens, UniProt O95365)
Sequence (O95365 whole entry): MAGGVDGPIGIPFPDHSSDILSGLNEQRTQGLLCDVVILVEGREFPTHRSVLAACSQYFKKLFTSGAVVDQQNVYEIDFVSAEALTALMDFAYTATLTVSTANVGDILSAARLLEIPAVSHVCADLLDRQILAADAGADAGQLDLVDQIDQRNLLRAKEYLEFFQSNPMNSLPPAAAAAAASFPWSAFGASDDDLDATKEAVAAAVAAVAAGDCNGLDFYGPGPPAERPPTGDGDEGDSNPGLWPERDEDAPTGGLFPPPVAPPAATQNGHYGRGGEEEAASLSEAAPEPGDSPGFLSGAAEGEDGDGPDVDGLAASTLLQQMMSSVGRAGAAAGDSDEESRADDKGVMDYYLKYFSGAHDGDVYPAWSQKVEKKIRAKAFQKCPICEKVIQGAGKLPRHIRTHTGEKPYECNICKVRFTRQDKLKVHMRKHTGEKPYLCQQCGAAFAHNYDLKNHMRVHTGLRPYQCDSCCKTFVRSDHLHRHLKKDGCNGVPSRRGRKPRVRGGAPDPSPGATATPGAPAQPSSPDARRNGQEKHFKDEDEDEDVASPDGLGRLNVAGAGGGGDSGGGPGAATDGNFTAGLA
Assay: pulldown; 150 mM NaCl, 50 mM Tris pH 8, 0.25% NP-40, 1 mM TCEP; 4 C, 2 h; 100 ug HeLa nuclear lysate
Conditions: protein: extract; label: 5' biotin (strand 1)
Note to self: use class 1 only for apparent K (half saturation) readings below 200 nM; a reading exactly at 200 nM still gets class 0.

Please indicate whether the reported apparent K (half saturation) of TATA-box (dsDNA) DNA 1: GCGGCGCTCTATATAAGTGGGCAGTG DNA 2: CACTGCCCACTTATATAGAGCGCCGC is strictly below 200 nM.
class 0

Please indicate whether the reported apparent K (half saturation) of SP/KLF wild-type (dsDNA) DNA 1: GAGAGCCCCGCCCCCTGGCT DNA 2: AGCCAGGGGGCGGGGCTCTC is strictly below 200 nM.
class 1

Just wondering, is apparent K (half saturation) of E-box (dsDNA) DNA 1: GGAAGCAGACCACGTGGTCTGCTTCC DNA 2: GGAAGCAGACCACGTGGTCTGCTTCC below 200 nM?
class 0

Please check: apparent K (half saturation) for CTCF (dsDNA) DNA 1: TCAGAGTGGCGGCCAGCAGGGGGCGCCCTTGCCAGA DNA 2: TCTGGCAAGGGCGCCCCCTGCTGGCCGCCACTCTGA , strictly under 200 nM or not?
class 1

In plain terms, does TEAD (dsDNA) DNA 1: TCGGGACCCAGGCCTGGAATGTTTCCACC DNA 2: GGTGGAAACATTCCAGGCCTGGGTCCCGA come in under 200 nM for apparent K (half saturation)?
class 1
